Source: BindingDB's records for patent US20240018151

- target-or-test-system: 1-phosphatidylinositol 3-phosphate 5-kinase (Homo sapiens, UniProt Q9Y2I7)
- Sequence (Q9Y2I7 whole entry): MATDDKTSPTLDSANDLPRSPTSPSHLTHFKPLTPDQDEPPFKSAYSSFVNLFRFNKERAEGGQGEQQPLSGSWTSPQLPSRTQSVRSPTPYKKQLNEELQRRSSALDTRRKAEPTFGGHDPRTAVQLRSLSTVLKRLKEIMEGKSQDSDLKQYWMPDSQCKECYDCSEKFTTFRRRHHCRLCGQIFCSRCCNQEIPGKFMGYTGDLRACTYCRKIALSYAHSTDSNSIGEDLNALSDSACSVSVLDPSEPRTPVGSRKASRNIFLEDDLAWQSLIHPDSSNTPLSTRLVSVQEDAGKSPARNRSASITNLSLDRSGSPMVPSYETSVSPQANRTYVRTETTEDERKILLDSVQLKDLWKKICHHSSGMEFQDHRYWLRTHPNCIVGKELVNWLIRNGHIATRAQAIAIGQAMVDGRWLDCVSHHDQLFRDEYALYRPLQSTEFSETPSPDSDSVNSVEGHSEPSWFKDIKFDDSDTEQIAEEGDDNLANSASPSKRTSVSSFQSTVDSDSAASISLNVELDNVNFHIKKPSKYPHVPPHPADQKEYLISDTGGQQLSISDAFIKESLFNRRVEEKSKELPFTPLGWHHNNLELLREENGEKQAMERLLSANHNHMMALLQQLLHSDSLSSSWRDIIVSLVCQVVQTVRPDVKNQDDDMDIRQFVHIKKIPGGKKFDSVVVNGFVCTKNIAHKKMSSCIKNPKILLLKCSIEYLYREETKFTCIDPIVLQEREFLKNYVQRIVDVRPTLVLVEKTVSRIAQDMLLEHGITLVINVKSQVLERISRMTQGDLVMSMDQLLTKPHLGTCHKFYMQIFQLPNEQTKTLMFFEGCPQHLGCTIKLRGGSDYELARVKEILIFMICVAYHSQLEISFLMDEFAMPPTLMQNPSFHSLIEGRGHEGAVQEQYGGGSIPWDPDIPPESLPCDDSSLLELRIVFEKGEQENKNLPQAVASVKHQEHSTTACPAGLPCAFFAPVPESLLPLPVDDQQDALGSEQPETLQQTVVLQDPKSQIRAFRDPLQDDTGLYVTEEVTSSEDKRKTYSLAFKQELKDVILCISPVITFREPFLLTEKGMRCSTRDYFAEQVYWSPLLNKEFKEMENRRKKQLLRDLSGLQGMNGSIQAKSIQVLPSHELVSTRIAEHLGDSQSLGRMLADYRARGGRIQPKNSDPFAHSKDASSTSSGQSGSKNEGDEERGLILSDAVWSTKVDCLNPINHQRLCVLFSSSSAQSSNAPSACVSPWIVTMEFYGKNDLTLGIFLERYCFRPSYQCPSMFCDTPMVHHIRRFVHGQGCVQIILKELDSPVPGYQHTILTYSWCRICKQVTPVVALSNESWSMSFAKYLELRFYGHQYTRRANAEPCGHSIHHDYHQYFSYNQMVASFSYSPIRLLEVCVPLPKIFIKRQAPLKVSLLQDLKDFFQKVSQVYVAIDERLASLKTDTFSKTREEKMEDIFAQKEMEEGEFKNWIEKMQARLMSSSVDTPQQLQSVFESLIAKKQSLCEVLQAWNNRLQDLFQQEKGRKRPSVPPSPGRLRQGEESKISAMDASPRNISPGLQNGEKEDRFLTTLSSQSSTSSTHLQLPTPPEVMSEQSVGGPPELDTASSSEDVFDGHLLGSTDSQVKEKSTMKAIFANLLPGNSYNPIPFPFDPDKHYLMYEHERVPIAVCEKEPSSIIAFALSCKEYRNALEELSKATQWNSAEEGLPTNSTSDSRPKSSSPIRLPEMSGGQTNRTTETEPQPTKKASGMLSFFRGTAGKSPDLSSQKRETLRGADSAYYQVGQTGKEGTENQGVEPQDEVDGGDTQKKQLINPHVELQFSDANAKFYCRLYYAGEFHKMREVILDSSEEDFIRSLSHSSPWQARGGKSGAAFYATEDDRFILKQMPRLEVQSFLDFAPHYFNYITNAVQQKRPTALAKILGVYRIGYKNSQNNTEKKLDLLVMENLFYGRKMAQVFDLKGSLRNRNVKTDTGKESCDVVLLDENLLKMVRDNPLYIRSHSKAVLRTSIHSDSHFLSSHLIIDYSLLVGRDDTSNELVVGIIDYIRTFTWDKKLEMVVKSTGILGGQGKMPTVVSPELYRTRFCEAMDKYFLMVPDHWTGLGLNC
quantity-kind: IC50

Q) Param readout= IC50; system= 1-phosphatidylinositol 3-phosphate 5-kinase (Homo sapiens, UniProt Q9Y2I7); entry= Brc1cccc(-c2ccn(-c3cc(N4CCOCC4)n4nc(-c5ccncc5)cc4n3)n2)c1 [US20240018151, Example 3] ; returns value.
A) < 50 nM
